# Phosphatase activity in the Malachite Green Assay, analog concentration 250 μM per entry
molecular target: recombinant human truncated SHIP1 (tSHIP1) (Homo sapiens); construct: tSHIP1 (SHIP1, residues 397-864) was amplified from pET24TEV-tSHIP1; His tag; made in house; host or cells: E. coli BL21; assay: Malachite Green Phosphatase Release Assay (SHIP1 phosphatase activity); type: biochemical; details: 250 μM analog; 100 μM PI(3,4,5)P3-diC8 substrate; normalized to vehicle control (DMSO) = 100%
Answer format: numeric, % implied, no suffix.

Use these answered entries as a reference point.
Cc1sc(S(=O)(=O)N2CCSCC2)cc1N; 107
Cc1sc(S(=O)(=O)N2CCSCC2)cc1NC(=O)CN1C(=O)c2ccccc2S1(=O)=O; 131
Cc1sc(S(=O)(=O)N2CCSCC2)cc1NC(=O)CNS(=O)(=O)c1cccc([N+](=O)[O-])c1; 102

In the following, a different compound is considered.
Return reported Phosphatase activity in the Malachite Green Assay, analog concentration 250 μM; argument: `Cc1sc(S(=O)(=O)N(C)C)cc1NC(=O)CNS(=O)(=O)c1ccc(F)cc1`
97

* * *

target: recombinant human truncated SHIP1 (tSHIP1) (Homo sapiens); construct: tSHIP1 (SHIP1, residues 397-864) was amplified from pET24TEV-tSHIP1; His tag; made in house; host or cells: E. coli BL21; experiment: Malachite Green Phosphatase Release Assay (SHIP1 phosphatase activity); assay type: biochemical; details: discussion of Table 4 (125-500 μM)
property label: SHIP1 activator activity in the malachite green assay

The cases that follow already have their SHIP1 activator activity in the malachite green assay on record.
Cc1sc(S(=O)(=O)N2CCSCC2)cc1NC(=O)CNC(=O)c1ccccc1; loss of potency
Cc1sc(S(=O)(=O)N2CCCC2)cc1NC(=O)CNS(=O)(=O)c1ccc(F)cc1; loss of activity
Cc1sc(S(=O)(=O)N2CCSCC2)cc1NC(=O)CNC(=O)OCc1ccccc1; loss of potency
Cc1sc(S(=O)(=O)N2CCOCC2)cc1NC(=O)CNS(=O)(=O)c1ccc(F)cc1; loss of activity
Cc1sc(S(=O)(=O)N2CCSCC2)cc1NC(=O)CNS(=O)(=O)c1ccc(I)cc1; loss of bioactivity

Could you now look at the following compound, please?
May I ask what SHIP1 activator activity in the malachite green assay has been recorded for `Cc1sc(S(=O)(=O)N2CCSCC2)cc1NC(=O)CNS(=O)(=O)c1ccccc1` ?
loss of bioactivity

* * *

Reported Phosphatase activity in the Malachite Green Assay, analog concentration 125 μM values are given for each entry in this list.
Target: recombinant human truncated SHIP1 (tSHIP1) (Homo sapiens, UniProt Q92835)
Construct: tSHIP1 (SHIP1, residues 397-864) was amplified from pET24TEV-tSHIP1; His tag; made in house; host or cells: E. coli BL21
Sequence (Q92835 397-864): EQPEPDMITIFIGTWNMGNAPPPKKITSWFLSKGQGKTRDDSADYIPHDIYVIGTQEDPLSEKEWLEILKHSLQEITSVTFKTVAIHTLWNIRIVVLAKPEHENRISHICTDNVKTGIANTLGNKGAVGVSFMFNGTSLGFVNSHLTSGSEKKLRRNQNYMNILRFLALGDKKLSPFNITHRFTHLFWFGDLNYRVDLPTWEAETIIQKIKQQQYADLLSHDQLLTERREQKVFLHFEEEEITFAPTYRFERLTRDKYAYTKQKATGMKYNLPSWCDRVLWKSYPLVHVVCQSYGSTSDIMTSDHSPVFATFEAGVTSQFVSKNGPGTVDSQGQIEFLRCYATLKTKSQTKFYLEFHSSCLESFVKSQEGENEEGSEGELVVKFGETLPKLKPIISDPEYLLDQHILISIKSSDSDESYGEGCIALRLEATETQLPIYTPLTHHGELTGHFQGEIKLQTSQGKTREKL
Assay: Malachite Green Phosphatase Release Assay (SHIP1 phosphatase activity)
Assay type: biochemical
Details: 125 μM analog; 100 μM PI(3,4,5)P3-diC8 substrate; normalized to vehicle control (DMSO) = 100%
Procedure: ^aPhosphatase activity for SHIP1 and SHIP2 enzyme as determined in the malachite green assay. Results were normalized to the phosphatase activity level from vehicle control (DMSO) used as 100% activity. Values >100% are attributed to activation, while values <100% show inhibition of the enzyme compared to the control. The assay was performed at the indicated concentration of the small molecule with 100 μM PI(3,4,5)P3-diC8 as the substrate. ^bnd=not determined, compound 23 was insoluble. […]
Quick note: give the figure in %, leave out the unit.

Cc1sc(S(=O)(=O)N2CCSCC2)cc1NC(=O)CNS(=O)(=O)c1ccccc1[N+](=O)[O-]; 117
CCCCNS(=O)(=O)c1cc(NC(=O)CNS(=O)(=O)c2ccc(F)cc2)c(C)s1; 124
O=C(CNS(=O)(=O)c1ccc(F)cc1)Nc1cc(S(=O)(=O)N2CCSCC2)sc1Cl; 102
Cc1sc(S(=O)(=O)N2CC[S+]([O-])CC2)cc1NC(=O)CNS(=O)(=O)c1ccc(F)cc1; 98
Cc1sc(S(=O)(=O)N2CCSCC2)cc1NC(=O)[C@H](C)NS(=O)(=O)c1ccc(F)cc1; 89

What does the data say about its Phosphatase activity in the Malachite Green Assay, analog concentration 125 μM? Entry: `Cc1sc(S(=O)(=O)N2CCSCC2)cc1NC(=O)CN`
103

For `O=C(CNS(=O)(=O)c1ccc(F)cc1)Nc1cccc(S(=O)(=O)N2CCSCC2)c1` , what is its reported Phosphatase activity in the Malachite Green Assay, analog concentration 125 μM?
94

Returns the measured Phosphatase activity in the Malachite Green Assay, analog concentration 125 μM for the input compound. Input: `Cc1sc(S(=O)(=O)N2CCSCC2)cc1NC(=O)CNS(=O)(=O)c1ccc([N+](=O)[O-])cc1`
108

# query: Phosphatase activity in the Malachite Green Assay, analog concentration 125 μM of entry `Cc1sc(S(=O)(=O)N2CCCCC2)cc1NC(=O)CNS(=O)(=O)c1ccc(F)cc1`
116

Request the reported Phosphatase activity in the Malachite Green Assay, analog concentration 125 μM associated with `Cc1sc(S(=O)(=O)N2CCSCC2)cc1NC(=O)CNS(=O)(=O)c1ccccc1`
104
